B1: TRAF3IP2 (parent)
chain: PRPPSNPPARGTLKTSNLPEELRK

# Variants of: B1
# assay.remarks: protein stability index of a GFP-peptide fusion (GPS, HEK-293T) (PSI 1-6); higher = more stable;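 note: lentivirally expressed fusions sorted by FACS into six bins by GFP to DsRed ratio, PSI derived from sequencing read proportions per bin multiplied by bin number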
# reported.conditions: c terminus: a fixed tail appended
quantity.measured: protein stability index

> print(dat)
     var        quantity.measured  value.reported
 1  P19C  protein stability index             4.7
 2   S5K  protein stability index            4.21
 3   N6M  protein stability index            5.31
 4   P1I  protein stability index            4.59
 5   P4L  protein stability index            4.58
 6   S5D  protein stability index            3.83
 7  T15Y  protein stability index            4.64
 8   P1D  protein stability index             4.6
 9  L22T  protein stability index             5.4
10  L13M  protein stability index            5.06
11  L13G  protein stability index            4.67
12  N17P  protein stability index            5.08
13  K14P  protein stability index            4.83
14  K24E  protein stability index            4.99
15   S5E  protein stability index            4.55
16   P4H  protein stability index             4.5
17  L22S  protein stability index            4.96
18   N6T  protein stability index            4.69
19   R2M  protein stability index            5.08
